Molecular target: T1, PDZD2_2, O15018
T1 sequence (O15018 329-429, limits assumed, looked up): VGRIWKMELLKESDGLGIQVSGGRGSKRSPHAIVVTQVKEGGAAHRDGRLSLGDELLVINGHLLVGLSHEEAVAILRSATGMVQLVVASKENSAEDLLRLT
Assay: holdup assay
Parameters: key: below the threshold = too weak to quantify, mostly under pKd 3.1 to 4
Conditions: plain residues with an end cap or a label only (N-terminal biotin on a linker: ado-ado)
Catalogue of binders with associated pKd
Could you respond with only the numeric value?

[[record]]
binder = "TNSKQGETTV [FZD1, Q9UP38]"
value_measured = 3.93


Now look at this entry.
Incoming: Report measured pKd; entry is GVHSNDHSVV [LPAR1, Q92633]
Outgoing: 4.99
